property: melting point

Form field: reported melting point of O=Cc1c2cccc(Cl)c2c(Cl)c2c(Cl)cccc12 118 to 120 °C

And for Oc1cnccc1N=CN1CCCCCC1 ? 117 to 118 °C

Queued: COc1cccc(CCc2ccccc2OC[C@H]2CCCN(C(=O)OC(C)(C)C)C2)c1 150 to 152 °C

Now give it for CC(=O)Nc1ccc(SCC(=O)NCC(=O)N(C)c2ccc(Cl)c(COc3cccc4ccc(C)nc34)c2Cl)cc1 too. 179 to 180 °C

Here is the next molecule: COc1ccc(CN2C(=O)C3CC(c4ccc(N)cc4)(C3)C2=O)cc1 147 to 148 °C

Entry Clc1ccc2nc(-c3ccco3)c(I)n2n1 please 260 to 263 °C

Can you check COC(=O)c1ccc2occ(-c3ccc(SC)c(Cl)c3)c2c1 next? 115 to 116 °C

Next record, please: CC(=O)c1cccc(NC(=O)c2cc(C(N)=O)cc(C(=O)N(c3cccc(C(C)=O)c3)c3cccc(C(C)=O)c3)c2)c1 270 °C

Same read-out for CNC(COc1ccc(C2C(=O)Oc3c2cc(C(C)(C)C)cc3C(C)(C)C)cc1)C(=O)O (stereo unspecified) ? 115 to 121 °C

Same for O=c1[nH]c2ccc(S(=O)CCN3CCC(Cc4ccc(F)cc4F)CC3)cc2o1 (stereo unspecified) 166 to 168 °C

What about this molecule? COc1cc2c(c(OC)c1OC)C(C)(C)CC(C=O)=C2 178 to 180 °C

Item: CC(C)(C#N)CNC(=O)c1nn(C2CCCCO2)cc1NC(=O)c1ccccn1 (stereo unspecified) 138 to 140 °C

Record: COC(=O)CCCCCCCCOC1OC(CO)C(O)C(O)C1O (stereo unspecified) 104 to 105 °C

Quick one: CCc1cnc2c(NC(=O)c3c(Cl)cccc3Cl)cccc2c1/C=C/C(=O)O 235 to 236 °C

Param item: CC(=O)OC(COc1ccc(C(=O)O)cc1)c1cc2cc(C(C)C)ccc2o1 (stereo unspecified) 135 to 137 °C

Cool, now O=Cc1cccnc1S(=O)(=O)c1ccc(Cl)cc1 100 to 101 °C

COc1cc(O)c2c(=O)[nH]c(-c3cc(C)c(O)c(C)c3)nc2c1 , same question. 291 to 293 °C
